# protein stability index per entry
B1: KLHDC10 (parent)
chain: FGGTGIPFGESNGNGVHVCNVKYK

- Variants of: B1
- TEST: protein stability index of a GFP-peptide fusion (GPS, HEK-293T) (PSI 1-6); higher = more stable;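 also: lentivirally expressed fusions sorted by FACS into six bins by GFP to DsRed ratio, PSI derived from sequencing read proportions per bin multiplied by bin number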
- TEST PARAMETERS: c terminus: a fixed tail appended

SEQ TEXT | protein stability index
FGGTGIPFGESNGNGVHVCNDKYK | 2.14
FGGTDIPFGESNGNGVHVCNVKYK | 2.95
FGGTGIPFGESNMNGVHVCNVKYK | 2.73
FGGTSIPFGESNGNGVHVCNVKYK | 2.39
FGGTGIPFGESNGNGVHVCWVKYK | 2.83
FGGTGIPFGESNGNGVHVCNVKYM | 2.42
FGGTGIPFGESNGKGVHVCNVKYK | 1.81
FGGTGQPFGESNGNGVHVCNVKYK | 2.27
FGGTGIPFGESNGNGVHVCNVWYK | 2.1
FGGTGIPFGESNGWGVHVCNVKYK | 3.08
FGGTGIPFGHSNGNGVHVCNVKYK | 1.99
FGGTGIPFGESIGNGVHVCNVKYK | 1.58

Every entry's value here was drawn from the supplement of paper PMC10567573.
